EXPERIMENT: ATG_Oct_MLP_CIS: Attagene CIS-FACTORIAL HepG2 Assay for human Octamer-Binding Transcription Factor (Oct) (AID 2282993)
CONDITION PARAMETERS: HepG2 Attagene cis-factorial Oct reporter, mRNA; actives raise or lower the signal
The source made the active and inactive calls. How the source made its calls: active means hit-call score of the fitted dose curve at least 0.9, where 1 is the maximum; inactive means score below 0.9.
Pick one and only one: true = active, false = inactive

For orientation, consider the following solved cases.
| SUBSTANCE SMILES | LABEL |
| --- | --- |
| Oc1cc2ccccc2cc1O | false |
| Clc1ccc(Nc2nnc(Cc3ccncc3)c3ccccc23)cc1 | false |
| Cc1cc(C(=C2C=CC(=Nc3ccc(S(=O)(=O)O)cc3)C=C2)c2ccc(Nc3ccc(S(=O)(=O)O)cc3)cc2)cc(S(=O)(=O)O)c1N | false |
| COc1ccc(C#N)cc1 | false |
| CCCCCCCCCCCCOC(=O)c1cc(O)c(O)c(O)c1 | true |

Now for a further molecule.
Q: I would be grateful if you could indicate the recorded call for N=C(N)c1ccc(OCCCCCOc2ccc(C(=N)N)cc2)cc1 .
Result: true

----------
ASSAY TARGET: Hypoxia-inducible factor 1-alpha (Homo sapiens)
EXPERIMENT: ATG_HIF1a_CIS: Attagene CIS-FACTORIAL HepG2 Assay for human Hypoxia Inducible Factor 1 (HIF1A) (AID 2282951)
CONDITION PARAMETERS: HepG2 Attagene cis-factorial HIF1a reporter transcription; actives raise or lower the signal
Activity calls are given as the source filed them. How the source made its calls: active means hit-call score of the fitted dose curve at least 0.9, where 1 is the maximum; inactive means score below 0.9.
Respond with a class label; see t for active, f for inactive

Worked examples follow.
| COMPOUND | LABEL |
| --- | --- |
| Cc1[nH]nc2c1N=C(c1ccccc1Cl)c1cc([N+](=O)[O-])ccc1N2 | f |
| CCCCCC(C)OC(=O)COc1ccc(Cl)c2cccnc12 (stereo not drawn) | f |
| CCCC=O | f |
| O=C(Nc1cccc([N+](=O)[O-])c1)c1cc2ccccc2cc1O | f |
| O=C(F)C(F)(F)C(F)(F)C(F)(F)C(F)F | f |
| COC1=CC(=O)C[C@@H](C)[C@]12Oc1c(Cl)c(OC)cc(OC)c1C2=O | t |

Q: Look up the recorded call for O=C(NCc1ncc(C(F)(F)F)cc1Cl)c1c(Cl)cccc1Cl in this test.
Result: f

Q: Consider next the compound O=S(=O)(c1ccc(OCc2ccccc2)cc1)c1ccccc1O in the same way.
Result: t

Q: What do you have for Clc1ccc(Nc2nnc(Cc3ccncc3)c3ccccc23)cc1 ?
Result: t

Q: Another compound to look at: CCOC(OCC)C(=O)c1ccccc1
Result: f

Q: Another compound: CC=O
Result: f

Q: What do you have for FC(OC(F)(F)C(F)(F)C(F)(F)F)C(F)(F)F (stereo not drawn) ?
Result: f

Q: Let us now turn to O=C(O)CN(CCCN(CC(=O)O)CC(=O)O)CC(=O)O
Result: f

----------
Read-out: Nuclear factor erythroid 2-related factor 2 (Homo sapiens) (UniProt Q16236)
Sequence (Q16236 whole entry, looked up): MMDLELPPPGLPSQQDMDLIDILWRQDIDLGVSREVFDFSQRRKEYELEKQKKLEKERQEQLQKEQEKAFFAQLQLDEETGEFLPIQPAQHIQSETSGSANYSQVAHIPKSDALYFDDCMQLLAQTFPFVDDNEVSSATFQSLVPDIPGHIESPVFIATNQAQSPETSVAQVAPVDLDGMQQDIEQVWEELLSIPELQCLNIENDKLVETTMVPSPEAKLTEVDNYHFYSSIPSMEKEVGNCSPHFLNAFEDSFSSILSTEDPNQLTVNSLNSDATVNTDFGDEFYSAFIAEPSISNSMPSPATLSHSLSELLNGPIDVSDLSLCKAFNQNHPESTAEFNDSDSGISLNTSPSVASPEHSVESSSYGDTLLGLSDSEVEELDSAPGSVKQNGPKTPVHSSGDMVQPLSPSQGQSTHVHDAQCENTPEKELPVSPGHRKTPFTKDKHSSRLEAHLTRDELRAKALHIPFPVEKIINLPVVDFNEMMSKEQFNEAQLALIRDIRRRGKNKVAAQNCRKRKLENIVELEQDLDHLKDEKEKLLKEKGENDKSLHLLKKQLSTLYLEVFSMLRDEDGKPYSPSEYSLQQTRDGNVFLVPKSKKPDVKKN
EXPERIMENT: LTEA_HepaRG_NFE2L2: Life Technologies and Expression Analysis (LTEA) Assay for Nuclear factor erythroid 2-related factor 2 (NFE2L2) Transcription Factor using HepaRG (AID 2283527)
CONDITION PARAMETERS: mRNA level, 48 h; actives raise or lower the signal
The source made the active and inactive calls. The calls were made as follows: active = hit-call score of the fitted dose curve at least 0.9, where 1 is the maximum; inactive = score below 0.9.
Pick one and only one: y = active, n = inactive

See these solved cases before continuing.
| SUBSTANCE SMILES | LABEL |
| --- | --- |
| O=C1NS(=O)(=O)c2ccccc21 | n |
| Cc1[nH]nc2c1N=C(c1ccccc1Cl)c1cc([N+](=O)[O-])ccc1N2 | y |
| OCC(CO)(CBr)CBr | n |

Let's switch to this compound now.
Q: Hello, I am checking results. What call was entered for CCCCC=O ?
Result: n

----------
EXPERIMENT: CCTE_Mundy_HCI_Cortical_Synap_Neur_Matur_SynapseCount: CCTE's Synaptogenesis and Neurite Maturation Assay in rat cortical cells for Synapse Count, Mundy Lab (AID 2284218)
Protocol: CCTE_Mundy_HCI_Cortical_Synap&Neurite_Matur is a multiplexed, cell-based-readout assay that uses rat primary cortical cells with measurements taken at 288.33 hours after chemical dosing in a microplate: 96-well plate.CCTE_Mundy_HCI_Cortical_Synap_Neur_Matur_SynapseCount is one of eight components of the CCTE_Mundy_HCI_Cortical_Synap&Neurite_Matur assay. […]
Calls of active or inactive are those of the source. Rule for the calls: active = hit-call score of the fitted dose curve at least 0.9, where 1 is the maximum; inactive = score below 0.9.
Bench note: report the call from 1 (yes) (active), 0 (no) (inactive)

| COMPOUND | LABEL |
| --- | --- |
| CN(Cc1cnc2nc(N)nc(N)c2n1)c1ccc(C(=O)N[C@@H](CCC(=O)O)C(=O)O)cc1 | 0 (no) |

Q: Look up the recorded call for Nc1ccn([C@@H]2O[C@H](CO)[C@@H](O)C2O)c(=O)n1 (some centres undefined) in this test.
Result: 1 (yes)

Q: // repeat for CC(=O)Nc1ccc(O)cc1 and report
Result: 0 (no)

Q: Next: CC(C)c1c(C(=O)Nc2ccccc2)c(-c2ccccc2)c(-c2ccc(F)cc2)n1CC[C@@H](O)C[C@@H](O)CC(=O)O
Result: 1 (yes)

----------
Read-out: Glutamate-cysteine ligase catalytic (GCLC), GCLC (gene 2729)
EXPERIMENT: LTEA_HepaRG_GCLC: Life Technologies and Expression Analysis (LTEA) Assay for Glutamate-cysteine ligase catalytic (GCLC) using HepaRG (AID 2283498)
CONDITION PARAMETERS: mRNA level, 48 h; actives raise or lower the signal
Description: LTEA_HepaRG is a cell based, multiplexed-readout assay that uses HepaRG, a human liver cell line, with measurements taken at 48 hours after chemical dosing on a 96-well plate.LTEA_HepaRG_GCLC is one of 102 assay component(s) measured in the LTEA HepaRG cell culture assay. It is a marker of Oxidative Stress.Data from the assay component LTEA_HepaRG_GCLC was analyzed into 1 endpoint. […]
Calls of active or inactive are those of the source. How the source made its calls: active means hit-call score of the fitted dose curve at least 0.9, where 1 is the maximum; inactive means score below 0.9.
QUANTITY MEASURED: outcome

| COMPOUND | MEASURED VALUE |
| --- | --- |
| CS(=O)(=O)c1ccc([C@@H](CC2CCCC2)C(=O)Nc2cnccn2)cc1Cl | inactive |
| O=C1NS(=O)(=O)c2ccccc21 | inactive |
| CCC(C)c1ccccc1O (stereo not drawn) | inactive |

----------
Read-out: E-selectin (Homo sapiens)
EXPERIMENT: BSK_SAg_Eselectin: BioMAP Diversity Plus: SAg Assay for Eselectin Biomarker Activity (AID 2283091)
CONDITION PARAMETERS: primary human HUVEC with PBMC; actives raise or lower the signal
The source made the active and inactive calls. How the source made its calls: active means hit-call score of the fitted dose curve at least 0.9, where 1 is the maximum; inactive means score below 0.9.
QUANTITY MEASURED: AC50

Take a look at these entries with their results.
| COMPOUND | AC50 |
| --- | --- |
| NC(=NCCCCCCN=C(N)/N=C(\N)Nc1ccc(Cl)cc1)/N=C(\N)Nc1ccc(Cl)cc1 | 5.02 µM (active) |
| C=COC(=O)C(C)(C)CCCCCC | 32.2 µM (active) |
| CCCCCc1ccc(O)cc1 | 26.8 µM (active) |
| CCCCCCCCCCCCOS(=O)(=O)O | inactive |
| CC(C)(C)c1ccc(O)c(O)c1 | 19.2 µM (active) |
| CCOC(=O)CN[C@@H](C(=O)N1CC[C@H]1C(=O)NCc1ccc(/C(N)=N/O)cc1)C1CCCCC1 | inactive |
| CC[N+](CC)(CC)Cc1ccccc1 | inactive |
| C=CC(=O)OCCC(F)(F)C(F)(F)C(F)(F)C(F)(F)C(F)(F)C(F)(F)C(F)(F)C(F)(F)F | inactive |

Q: Give the measured AC50 of C[C@]12CC[C@@H]3c4ccc(O)cc4CC[C@H]3[C@@H]1C[C@@H](O)[C@@H]2O .
Result: inactive

Q: Would you mind doing O=C(O)CCC(F)(F)C(F)(F)C(F)(F)C(F)(F)C(F)(F)F as well?
Result: inactive

----------
EXPERIMENT: BSK_3C_Proliferation: Cell Proliferation Assessment in the BioMAP Diversity Plus: 3C Assay (AID 2283006);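 further: potency may reflect either rise or fall in cell number versus DMSO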
CONDITION PARAMETERS: primary human endothelial cells (HUVEC)
The source made the active and inactive calls. The calls were made as follows: active = hit-call score of the fitted dose curve at least 0.9, where 1 is the maximum; inactive = score below 0.9.
Respond using exactly one of the listed classes: active, inactive

Q: Please let me know the test result on file for CCCCCCCCCCCCCCCCCC[N+](C)(C)Cc1ccccc1 .
Result: active

----------
Read-out: Pselectin, SELP (gene 6403)
EXPERIMENT: BSK_4H_Pselectin: BioMAP Diversity Plus: 4H Assay for Pselectin Biomarker Activity (AID 2283026)
CONDITION PARAMETERS: primary human endothelial cells (HUVEC); actives raise or lower the signal
Calls of active or inactive are those of the source. Rule for the calls: active = hit-call score of the fitted dose curve at least 0.9, where 1 is the maximum; inactive = score below 0.9.
The categories you may choose from are YES (active), NO (inactive)

| COMPOUND | LABEL |
| --- | --- |
| CCCCCCCCCCCC | NO |
| N=C(N)c1ccc(OCCCCCOc2ccc(C(=N)N)cc2)cc1 | YES |
| C=CC(=O)OCCC(F)(F)C(F)(F)C(F)(F)C(F)(F)C(F)(F)C(F)(F)C(F)(F)C(F)(F)F | NO |
| CCOC(=O)CN[C@@H](C(=O)N1CC[C@H]1C(=O)NCc1ccc(/C(N)=N/O)cc1)C1CCCCC1 | NO |
| COc1cc(OC)nc(NC(=O)NS(=O)(=O)Nc2ccccc2C(=O)N(C)C)n1 | NO |

Q: Can you look up the reported call for CCCCCCCCCCCCOS(=O)(=O)O for me?
Result: NO

Q: O=C1OC2(c3ccccc31)c1cc(I)c(O)c(I)c1Oc1c2cc(I)c(O)c1I , same question.
Result: YES

Q: How about C=CC(C)(CCC=C(C)C)OC(C)=O (configuration not stated) ?
Result: YES

Q: Same question, COc1cccc(O)c1 this time
Result: NO

Q: Also, CCCCC(CC)C(=O)O (configuration not stated) please.
Result: NO

Q: Same question for CCCCC=O please.
Result: NO

Q: Continue with O=C1c2ccc(O)c(O)c2C(=O)c2c(O)ccc(O)c21
Result: NO
